# System: LXRa:RXRa (NR concentration 270 nM, RXRa partner concentration 90 nM)
# test_name: PBM binding z-score (relative to random genomic background probes); higher = stronger binding; sequences stand for … in GC…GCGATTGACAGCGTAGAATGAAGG
Note to self: values exactly at 1 are Met. So PBM binding z-score at or above 1 is Met, below is Not met.

Query: Hello, I need to know if TTACCACGGTGAAGGTCGTTGATCCCTCTGTAGA has measured PBM binding z-score not below 1. Thanks!
Result: Met

Query: Hello, I need to know if ATATGTAGGTTACATCCGGGTCATTTAGGCTATG has measured PBM binding z-score not below 1. Thanks!
Result: Met

Query: Hello, I need to know if GCTGCTAGGTCAGGTTGGTTAGCTAACGGGTACG has measured PBM binding z-score not below 1. Thanks!
Result: Not met

Query: Hello, I need to know if TAGCCTAGGGCATTGGGCCAGTATAGTACGCATC has measured PBM binding z-score not below 1. Thanks!
Result: Not met

Query: Hello, I need to know if GCTTGTAGATCAATGTTAAGAAAGACTAAGCTAA has measured PBM binding z-score not below 1. Thanks!
Result: Not met

Query: Hello, I need to know if GATACAGGGTCAGCTAGAGGCCAGAGTATGGAAA has measured PBM binding z-score not below 1. Thanks!
Result: Met

Query: Hello, I need to know if TATACAGAGTCAAAGGCCAGAGTACGAATGTCGA has measured PBM binding z-score not below 1. Thanks!
Result: Not met

Query: Hello, I need to know if TCTATTAGTTGAAGGGCAACCGGCGAGTCCGTTT has measured PBM binding z-score not below 1. Thanks!
Result: Met

Query: Hello, I need to know if GCATATAGGTAATACAAGGTGAAAGTACGATTGT has measured PBM binding z-score not below 1. Thanks!
Result: Met

Query: Hello, I need to know if TCGCGTAGGTTACCAATGGGGCATTCAGCTTTCT has measured PBM binding z-score not below 1. Thanks!
Result: Met

Query: Hello, I need to know if TCTGCTAGGCCAGTTGGTCAGCTAACGAGCTGCC has measured PBM binding z-score not below 1. Thanks!
Result: Not met

Query: Hello, I need to know if TGTCAAAGTTCACAGGTAACGTAAGTATCCACAC has measured PBM binding z-score not below 1. Thanks!
Result: Met

Query: Hello, I need to know if ATCTCTAGGTAAAGTTTAGTGAAAGATCGATAGA has measured PBM binding z-score not below 1. Thanks!
Result: Not met

Query: Hello, I need to know if CGTCACAGTTCAAGGTAACGTAACAGAAAGCAGC has measured PBM binding z-score not below 1. Thanks!
Result: Met

Query: Hello, I need to know if GGAACGAGGGCATTCGAGCTGATAGCATGGCGAT has measured PBM binding z-score not below 1. Thanks!
Result: Not met

Query: Hello, I need to know if CTCGAAATGTCGTGCTCAGGTGAGTATACCAAAC has measured PBM binding z-score not below 1. Thanks!
Result: Not met

----------
# Tested on: RXRa DBDmut IVT, anti-RXR (DBD mutation: RXRa K156A/R161A, NR concentration 90 nM)
# test_name: PBM binding z-score (relative to random genomic background probes); higher = stronger binding; sequences stand for … in GC…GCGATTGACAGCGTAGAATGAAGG
measured_quantity: PBM binding z-score
Reply with the value as a number alone.

Query: Under RXRa DBDmut IVT, anti-RXR (DBD mutation: RXRa K156A/R161A, NR concentration 90 nM): report PBM binding z-score of ACCCGGAGGACAAAGGTCAGAGCTACGCCAGTGA .
Result: 0.737

Query: Under RXRa DBDmut IVT, anti-RXR (DBD mutation: RXRa K156A/R161A, NR concentration 90 nM): report PBM binding z-score of CGAACTAGGTCAGAACAGGCCAGTGAAGGATGAT .
Result: 0.213

Query: Under RXRa DBDmut IVT, anti-RXR (DBD mutation: RXRa K156A/R161A, NR concentration 90 nM): report PBM binding z-score of TCATATAGGCAAATGCTAGGTGAAAGTCCGATCT .
Result: 1.15

Query: Under RXRa DBDmut IVT, anti-RXR (DBD mutation: RXRa K156A/R161A, NR concentration 90 nM): report PBM binding z-score of GCATATAGGTAATACAAGGTGCAAGTCCGATTGT .
Result: 0.314

Query: Under RXRa DBDmut IVT, anti-RXR (DBD mutation: RXRa K156A/R161A, NR concentration 90 nM): report PBM binding z-score of AGAACGAGGGCACGCTGAGTTGATTGCAGAGTAG .
Result: 1.87

Query: Under RXRa DBDmut IVT, anti-RXR (DBD mutation: RXRa K156A/R161A, NR concentration 90 nM): report PBM binding z-score of CGAACTAGGTCATACAGGACAGTGAATACATTGA .
Result: 2.32

Query: Under RXRa DBDmut IVT, anti-RXR (DBD mutation: RXRa K156A/R161A, NR concentration 90 nM): report PBM binding z-score of TCATATAGGTAAATGCTAGGTGAAAGACCGATCT .
Result: 1.44

Query: Under RXRa DBDmut IVT, anti-RXR (DBD mutation: RXRa K156A/R161A, NR concentration 90 nM): report PBM binding z-score of GCTCGGAGGACAGGGTCAGAGCTTTGTCCGTAGA .
Result: 0.265

Query: Under RXRa DBDmut IVT, anti-RXR (DBD mutation: RXRa K156A/R161A, NR concentration 90 nM): report PBM binding z-score of ACCTACGGGTCAACGAGGTTATAGCACGCGTATA .
Result: 2.06

Query: Under RXRa DBDmut IVT, anti-RXR (DBD mutation: RXRa K156A/R161A, NR concentration 90 nM): report PBM binding z-score of TAGCCTAGGTCAGATCGGGCCAGTAAACGCTATA .
Result: -0.396

The measurements presented in this section are drawn from the supplement of paper PMC6555819.
